The reported numbers originate from the supplement of paper PMC10567573.

B1: HNF4A (parent)
chain: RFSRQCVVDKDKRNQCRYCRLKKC

- Variants of: B1
- Assay notes: protein stability index of a GFP-peptide fusion (GPS, HEK-293T) (PSI 1-6); higher = more stable;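 note: lentivirally expressed fusions sorted by FACS into six bins by GFP to DsRed ratio, PSI derived from sequencing read proportions per bin multiplied by bin number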
- Condition description: c terminus: a fixed tail appended
Assay readout: protein stability index
Lab note: write the figure by itself, no unit.

K22E | 1.54
C6E | 2.82
V7S | 2.1

Prompt line: State the recorded protein stability index for this entry: Q15K
Response line: 2.85

Prompt line: State the recorded protein stability index for this entry: R1D
Response line: 2.59

Prompt line: State the recorded protein stability index for this entry: R20V
Response line: 2.56

Prompt line: State the recorded protein stability index for this entry: D11L
Response line: 2.21

Prompt line: State the recorded protein stability index for this entry: R4S
Response line: 2.44

Prompt line: State the recorded protein stability index for this entry: R17Y
Response line: 2.21

Prompt line: State the recorded protein stability index for this entry: D11N
Response line: 2.4

Prompt line: State the recorded protein stability index for this entry: C19I
Response line: 2.03

Prompt line: State the recorded protein stability index for this entry: C16H
Response line: 3.9
